assay: Determination of Therapeutic Ratios: LD50 in suckling 8 day old mice; settings: mouse, in vivo, po; therapeutic ratio (T.R.), standard errors of ED50 corrected; range (3.9-8.1)
Structures can show the parent of a compound that is named as a salt.
Measurement name: selectivity ratio

-- ask Quick check: selectivity ratio of CCCCN(CCCC)C(=N)c1ccc(OC)c2c1CCCC2 [Example 11, hydrochloride] ?
-- reply 5.6
